All values here come from ChEMBL document CHEMBL3988442.

- Tested on: Plasmodium falciparum
- Assay notes: Calibr Malaria Delayed Death Assay SOP
- Type: functional, organism-based
- Parameters: scale not given: in the data most compounds retested in dose-response had high values
- Assay setup: concentration 4.99e-06 (unit not given; other assays of the set use mol/L)
In all, about 38,000 compounds went through this assay and about 1,200 (3.2%) showed an effect of 50% or more. The median lay at about -58%. Shown is part of a subset that was picked to be rich in strong results.
// NB: equality with 40% counts as Not met; only Percent Effect strictly below is Met

Compound	Classification
Cn1cc(C2=CCN(CCCOc3ccc(C(N)=O)cc3)CC2)cn1	Met
CCn1cc(C2=CCN(CCCOc3ccccc3)CC2)cn1	Not met
Cc1noc([C@H]2CC[C@@H]3[C@@H](CCN3c3ncccn3)O2)n1	Met
CC(C)(C)n1cc(C2=CCN(CCNC(=O)c3ccccc3)CC2)cn1	Met
COc1ccc(CN(CCC#N)CCN2CCOCC2)cc1OC	Met
CC(C)(C)n1cc(C2=CCN(CCNC(N)=O)CC2)cn1	Met
N#CCCN(CCN1CCOCC1)Cc1ccc(F)c(Br)c1	Not met
CCC(O)Cn1cc(C2=CCN(Cc3ccc(OC)cc3)CC2)cn1 (stereo unspecified)	Not met
CC(C)(C)n1cc(C2=CCN(CCN3CCCCCC3)CC2)cn1	Not met
CC(C)(C)n1cc(C2=CCN(CCc3ccccn3)CC2)cn1	Not met
CC(C)(C)n1cc(C2=CCN(CCc3ccccc3)CC2)cn1	Not met

====

- System: Plasmodium falciparum
- Assay notes: Calibr Malaria Delayed Death Assay SOP
- Assay type: functional, organism-based
- Set-up: scale not given: in the data most compounds retested in dose-response had high values
- Assay setup: concentration 4.99e-06 (unit not given; other assays of the set use mol/L)
About 1,200 (3.2%) of roughly 38,000 compounds showed an effect of 50% or more. The median lay at about -58%. For the sample, strong results were picked, then their nearest neighbours and some compounds at random.

Molecule	Percent Effect
Cc1cnc(N2CC[C@@H]3OC(COCC(=O)N(C)C)CC[C@@H]32)nc1.O=C(O)C(F)(F)F (stereo not given in full)	-36.79%
CCCNC(=O)CCC(=O)n1nc(C)c2ccccc21	-0.03666%
Cc1noc(C)c1CN1C[C@H](OCC2CC2)[C@H]2COC[C@H]21.O=C(O)C(F)(F)F	-59.49%
O=C(NCc1ccon1)N1CCC(n2ccc(C(F)(F)F)n2)CC1	-25.88%
COc1ccc(CN2CCNC(=O)CC2)cc1SC(F)(F)F	74.78%
CC(C)Oc1ccccc1NC(=O)N1CCC(n2cncn2)CC1	-58.88%
CCc1nnc2n1CCN(Cc1nc3c(F)cccc3[nH]1)C2	-34.12%
O=C(NCCn1ccnc1)c1ccn(-c2ccc(F)cc2)n1	-157.5%
Cc1ccc(C(=O)N2CCN(c3ccnc4ccsc34)CC2)o1	5.694%
COc1ccc(CN2CCC(C(N)=O)C2)c(Br)c1OC (stereo not given)	-101%
c1cnn(CC2CCCN2Cc2noc(C3CC3)n2)c1 (stereo not given)	-115.2%
Cc1cc(C)n(C2CN(CC(O)COc3ccc(F)cc3)C2)n1 (stereo not given)	-22.32%
O=C1CC(c2ccc3c(c2)OCO3)c2cnn(C3CCCC3)c2N1 (stereo not given)	-69.51%
NC(=O)Cc1ccc(OCc2noc(C(=O)N3CCCC3)n2)cc1	-126.1%
CCN1CCC2(CC1)CC(NC(=O)c1csnn1)c1ccccc1O2.O=C(O)C(F)(F)F (stereo not given)	-39.08%
CC(C)n1c2ccccc2c2c1cc(C(=O)NC1CC1)n2C(=O)N(C)C	-14.52%
CCS(=O)(=O)N1CCC2(CN(C(=O)c3cn(C)cn3)C2)C1	-95.83%
COc1ccc(C(C)NC(=O)N2CCNC(=O)CC2)cc1F (stereo not given)	-89.17%
COc1cccc(CN2CCCC2c2c(C)nn(C)c2C)c1 (stereo not given)	21.41%
CCOC(=O)CNC(=O)N1CCc2onc(-c3ccc(Cl)cc3)c2C1	-35.73%
Cc1nc(CN2CCCC2Cn2ccnc2C(C)C)nc2ccccc12 (stereo not given)	77.09%
O=C(C1CCOCC1)N1CC[C@@H](N2CCOCC2)[C@@H]1Cc1ccccc1	3.107%
CSc1ccc(OCCN2CCNC(=O)CC2)cc1	-70.99%
Cc1noc(C)c1CN1CC[C@H](OCC2CC2)[C@@H](Cc2ccccc2)C1	60.12%
Cc1nc(C)n(CC2CCCN2Cc2nc(N)c3ccccc3n2)n1 (stereo not given)	-104.3%
Cn1cccc1C(=O)N1CCc2onc(Cn3cccn3)c2C1	-37.04%
c1ccc(Cc2noc(CN3CCCCC3Cn3cccn3)n2)cc1 (stereo not given)	-99.91%
CC(C)c1nccn1CC1CCCN1Cc1nc2ccccc2n1C (stereo not given)	20.35%
CN(C)C(=O)N1CCN(CCn2nc3ccccn3c2=O)CC1	-59.88%
Cn1cc(CN2CCC3(CC2)CN(c2cccnc2)C(=O)CO3)cn1	-97.96%
O=C(O)C(F)(F)F.c1ccc(C[C@H]2CN(Cc3nccs3)CC[C@@H]2OCC2CC2)cc1	38.1%
Cc1nc(CN2CCCCC2Cn2cncn2)nc2ccccc12 (stereo not given)	-55.02%
CCC(=O)N1CCC2(CC1)CC(CC(=O)NC1CC1)c1ccccc1O2 (stereo not given)	-119.5%
COCCC1COC2(CCN(C(=O)c3cccnc3)CC2)C1.O=C(O)C(F)(F)F (stereo not given)	-117.3%
CNC(=O)C1(CCCc2ccncc2)CCN1.O=C(O)C(F)(F)F (stereo not given)	-123.5%
Cc1nc(CN2CCCC2c2ccsc2)nc2ccccc12 (stereo not given)	24.09%
O=C(NCc1cccs1)[C@H]1CC[C@@H]2[C@@H](CCN2Cc2ccoc2)O1.O=C(O)C(F)(F)F	4.133%
COc1ccc(C(O)CN2CC(n3cc(C)cn3)C2)cc1 (stereo not given)	19.27%
Cc1nn(C)c(C)c1C1CCCN1CCCc1nc2ccccc2o1 (stereo not given)	18.49%
Cn1cnc(C(=O)N2CC3(CCN(S(=O)(=O)c4ccccc4)C3)C2)c1	9.335%
O=C(NC1CC2(CCN(CCO)CC2)Oc2ccccc21)c1csnn1 (stereo not given)	-18.14%
CN(Cc1cccnc1)[C@@H]1CN(Cc2ccccn2)[C@@H]2CCCO[C@H]12	50.75%
Cc1cnn(C2CN(CC(O)c3ccc(F)cc3)C2)c1 (stereo not given)	56.46%
Cc1csc2c(=O)n3c(nc12)CCN(C(=O)c1ccnn1C)CC3	-147.1%
CCC(=O)N1CCc2onc(CNS(C)(=O)=O)c2C1	-110.9%
